In this section, each of the compounds is paired with its reported TGI.
Tested on: CAKI-1 renal
Assay: NCI tumour cell line growth inhibition, 48 h

COMPOUND | TGI
CCOC(=O)C(=O)N=Nc1nc2c(O)c3ccccc3c(O)c2s1 | 35.6 µM
COc1ccc(-c2cc(/C=C3\C(=O)Nc4ccc(OC)cc43)[nH]n2)cc1 | > 100 µM
O=C1c2nn(-c3ccccc3)nc2C(c2ccccc2)N1c1ccccc1 (configuration not stated) | > 100 µM
CCn1c(=O)ccc2ccc(N(CCO)CCO)nc21 | > 100 µM
Cc1cc(C)cc(Sc2c([N+](=O)[O-])ncn2C)c1 | 89.2 µM
O=C(Nc1ccccc1Br)c1cccc([N+](=O)[O-])c1O | > 43.8 µM
COc1cc(C2CC(c3cc(C)ccc3C)=NN2c2ccc(S(=O)(=O)NC(=O)NCc3ccccc3)cc2)cc(OC)c1OC (configuration not stated) | 19.9 µM
N#Cc1cccc(NC(=O)c2oc3ccccc3c2-c2cnn(-c3ccccc3)c2)c1 | > 500 µM
Oc1cc(O)c2c(=S)cc(-c3ccc(Cl)cc3)oc2c1 | 19.1 µM
COc1cc([C@@H]2c3cc4c(cc3[C@@H](O[C@@H]3O[C@@H]5CO[C@@H](c6cccs6)O[C@H]5[C@H](O)[C@H]3O)[C@H]3COC(=O)[C@H]23)OCO4)cc(OC)c1O | 24.2 µM
C[C@]12C=CC(=O)C=C1CC[C@@H]1[C@@H]2C(=O)C[C@@]2(C)[C@H]1CC[C@]2(O)C(=O)CO | > 100 µM
CC1(C)C2CCC3(OCCO3)C1C1OC12 (configuration not stated) | > 100 µM
O=C1c2ccccc2-c2c1c1ccccc1c(=O)n2CCCN1CCN(CCCn2c3c(c4ccccc4c2=O)C(=O)c2ccccc2-3)CC1 | > 100 µM
C[C@H]1CC(=O)C2=CCCC3(SCCCS3)[C@@H]2[C@H]1CO | > 100 µM
CCCCN(CCCC)CCCN=c1nc2c(c(N)n1-c1ccccc1)c(=S)n(-c1ccccc1)c(=S)n2-c1ccccc1 | 1.49 µM
O=C(CCCc1ccccn1)c1ccccc1 | > 100 µM
O=C1c2ccccc2C(=O)N1CCCCCCNOCCCN1C(=O)c2ccccc2C1=O | > 100 µM
Cc1c(CCCl)c(N=[N+]=[N-])n2c(nc3ccccc32)c1C#N | 3 µM
CCOC(=O)c1cccc([N+](=O)[O-])c1N | > 100 µM
COc1ccc(C2=NN(c3ccccc3)C(c3cc4cc(Br)ccc4nc3Cl)C2)cc1 (configuration not stated) | > 25 µM
COc1cccc(NC(=O)CC(=O)N2NC(C)C(N=Nc3cccc(C(=O)O)c3)C2=O)c1 (configuration not stated) | > 100 µM
O=c1cc(-c2ccccc2)oc2ccc(Oc3nnnn3-c3ccccc3)cc12 | > 86.5 µM
CO/N=C1/c2sccc2[C@H](NC(=O)C(F)(F)F)[C@@H]1O | > 100 µM
C=C(C)[C@@H]1CCC2=C[C@@H](OC2=O)[C@@H](C(=C)C)C(=O)/C=C(/C)C(=O)C1 | 60.9 µM
Cc1ccc(S(=O)(=O)Oc2ccc(OS(=O)(=O)c3ccc(C)cc3)c3c2C(=O)c2ccccc2C3=O)cc1 | > 100 µM
COc1ccc(-c2nn(-c3cccc(NC(=O)Nc4cc(C(F)(F)F)cc(C(F)(F)F)c4)c3)cc2-c2ccncc2)cc1Cl | 9.44 µM
CCOc1ccc2c(ccc(/C=C\c3cc(C)c4cccnc4c3O)[n+]2C)c1 | 29.3 µM
Clc1ccc(-c2nn3ncccc3c2-c2ccnc(Nc3ccccc3)n2)cc1 | > 22.2 µM
Cc1ccc2[nH]c3[nH]c(=O)[nH]c(=O)c3c2c1 | > 100 µM
O=C1CC(=O)c2c(Cl)sc(Cl)c21 | > 100 µM
CCOc1ccc(/C=C/[N+](=O)[O-])cc1 | > 100 µM
CC1(C)CC2C=C(C=O)C3(C=O)CC3(C)C2C1 (configuration not stated) | 4.26 µM
